target: mouse GDF-11 (mouse, UniProt Q9Z1W4 297-405, limits assumed); test: plate binding assay, OD 450 nm, one antibody concentration that is not given, on Mu-GDF-11 (method not described in the text)
Sequence (Q9Z1W4 297-405 limits assumed): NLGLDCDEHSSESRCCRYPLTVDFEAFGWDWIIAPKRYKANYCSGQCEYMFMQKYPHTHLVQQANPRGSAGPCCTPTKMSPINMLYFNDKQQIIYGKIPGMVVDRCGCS
Reported Property: binding result

| Binder | Assay Result |
| --- | --- |
| Ab111 (antibody, human IgG4 S228P, kappa, V domains shown) VH: QVQLVQSGAEVKKPGASVKVSCKVSGYTFTSNDIHWVRQAPGKGLEWMGGIFPIFGTTIYAQKFQGRVTMTEDTSTDTAYMELSSLKSEDTAVYYCAREGLGYDFDYWGQGTLVTVSS VL: DIQMTQSPSSVSASVGDRVTITCRASQNIGNWLAWYQQKPGKAPKLLIYSASALQSGVPSRFSGSGSGTDFTLTISSLQPEDFANYYCQQSYGAPMYSFGGGTKVEIKR | no binding |
| Ab125 (antibody, human IgG4 S228P, kappa, V domains shown) VH: EVQLVQSGAEVKKPGESLKISCKGSGNRISDYWMNWVRQVPGKGLEWMGNIYPGYSDATYNRKFKGQVTISADKSISTAYLQWSSLKASDTAIYYCARGRDGYNYFAAFDIWGQGTMVTVSS VL: EIVLTQSPATLSLSPGERATLSCRASQSVASSYLAWYQQKPGQAPRLLIYDTSSRAAGIPARFSGSGSGTDFTLTISSLEPEDFAVYYCHQYGSSLTTFGGGTKVEIKR | no binding |
| Ab126 (antibody, human IgG4 S228P, kappa, V domains shown) VH: EVQLVESGGGLVQPGGSLRLSCTASSFTFSNYAMDWVRQAPGKGLEWVSYISSDASTTYYADSVKGRFTISRDNAKNTLYLQMNSLRAEDTAVYYCARDGGYNPGIFDYWGQGTLVTVSS VL: DIQMTQSPSSLSASVGDRVTITCQASQSIGRWLNWYQQKPGKAPKLLIYDASILQTGVPSRFSGSGSGTDFTFTISSLQPEDIATYYCQQSFTTPPLTFGGGTKVEIKR | no binding |
| Ab119 (antibody, human IgG4 S228P, kappa, V domains shown) VH: QVQLVQSGAEVKKPGASVKVSCKVSGYTFTKDHIHWVRQAPGKGLEWMGGITPSSGDTIYAQKFQGRVTMTEDTSTDTAYMELSSLKSEDTAVYYCARDHMVRGLPNYYYGMDLWGQGTTVTVSS VL: DIQMTQSPSSVSASVGDRVTITCRASRDIANYLAWYQQKPGKAPKLLIYAASILQNGVPSRFSGSGSGTDFTLTISSLQPEDFANYYCQQAYTTPPTFGGGTKVEIKR | no binding |
